Test system: 786-0 renal
Assay method text: NCI tumour cell line growth inhibition, 48 h
For each of the compounds below, state its TGI.
Please give a number only; it is taken to be in µM.

// TGI value for `CCOC(=O)c1sc2nc(SC)nc3c2c1NCN3c1ccc(F)c(F)c1` : 12.4

// TGI value for CC12CC3OC(=O)C1COC14OC5(C2C1=O)C(O)(CCC1C4CC2OC24CC=CC(=O)C14C)C(=O)OC35C (stereo not given) : 28.7

// TGI value for `CSc1cc(-c2ccccn2)nc(-c2ccccn2)c1` : 11.4

// TGI value for `Cc1ccc(/C=C2\CN(C(=O)C(Cl)Cl)C/C(=C\c3ccc(C)cc3)C2=O)cc1` : 0.397

// TGI value for `Cc1ccc(-c2c3c(nn2-c2ccc(S(N)(=O)=O)cc2)-c2ccccc2C3)cc1` : 31.8

----------
For each of the molecules below, state its TGI.
Test system: UACC-62 melanoma
Assay method text: NCI tumour cell line growth inhibition, 48 h

Sample `CC1=CC(=O)C(C(C)C)=CC1=Nc1cc(Br)c(O)c(Br)c1` , system: UACC-62 melanoma. Its TGI is 13.1 µM

Sample CC1(C)C(CCO)CC1n1cc(I)c(=O)[nH]c1=O (centres undefined) , system: UACC-62 melanoma. Its TGI is > 100 µM

Sample `Cc1noc2c1C(=O)CCC2` , system: UACC-62 melanoma. Its TGI is > 100 µM

Sample `CCOC(=O)c1sc2nc(SC)nc3c2c1NCN3c1ccc(F)c(F)c1` , system: UACC-62 melanoma. Its TGI is > 100 µM

Sample CC(=O)OCC1OC(OCCCCCCO)C(OC(C)=O)C(OC(C)=O)C1OC(C)=O (centres undefined) , system: UACC-62 melanoma. Its TGI is > 100 µM

Sample `O=[N+]([O-])c1ccc(N/N=C/CC(O)(C(F)(F)F)C(F)(F)F)c([N+](=O)[O-])c1` , system: UACC-62 melanoma. Its TGI is > 10 µM

Sample Cc1ccc(NC(=O)C(Cc2c[nH]c3ccccc23)NC(=O)Oc2ccccc2)cc1C (centres undefined) , system: UACC-62 melanoma. Its TGI is > 100 µM

Sample O=C(O)C1CCCCC1c1c2ccc(=O)c(O)c-2oc2c(O)c(O)ccc12 (centres undefined) , system: UACC-62 melanoma. Its TGI is > 100 µM

Sample `CS(=O)(=O)NNS(=O)(=O)c1ccccc1` , system: UACC-62 melanoma. Its TGI is > 100 µM

Sample `O=c1sc2c(s1)-c1sc(=O)sc1SS2` , system: UACC-62 melanoma. Its TGI is > 100 µM

Sample CCOc1cc(Br)c(C(C)NC(=O)c2cccc(OC)c2)cc1OCC (centres undefined) , system: UACC-62 melanoma. Its TGI is > 100 µM

Sample NC1=NC(c2ccc(Cl)cc2)N(c2ccc(S(N)(=O)=O)cc2)C(N)=N1 (centres undefined) , system: UACC-62 melanoma. Its TGI is > 100 µM

Sample `CSCCCS/C1=C/CCCCCCCCCC1` , system: UACC-62 melanoma. Its TGI is > 100 µM

Sample `CCN(CC)c1ccc(N=Nc2ccc([N+](=O)[O-])cc2OC(=O)/C=C/c2ccccc2)c(OC(=O)/C=C/c2ccccc2)c1` , system: UACC-62 melanoma. Its TGI is > 74.8 µM

Sample COc1cc(C2SC(C)C(=O)N2c2ccc(-c3csc(NS(=O)(=O)c4ccc(Cl)c(OC)c4)n3)cc2)ccc1O (centres undefined) , system: UACC-62 melanoma. Its TGI is 55.3 µM

Sample `COc1ccc(/C=C/C(=O)c2cc(C(C)(C)C)c(O)c(C(C)(C)C)c2)cc1OC` , system: UACC-62 melanoma. Its TGI is 40.1 µM

Sample `O=c1cc(-c2c[nH]c3ccccc23)[nH]c2cc3c(cc12)OCO3` , system: UACC-62 melanoma. Its TGI is > 100 µM

Sample `Cc1ccc(/C=C2\CN(C(=O)C(Cl)Cl)C/C(=C\c3ccc(C)cc3)C2=O)cc1` , system: UACC-62 melanoma. Its TGI is 0.632 µM

Sample `Cc1cccc(C(C)C)c1N1C(=O)C(=O)C(c2nc3ccccc3o2)C(=O)C1=O` , system: UACC-62 melanoma. Its TGI is > 100 µM

Sample `CCCCCCCCCCCCc1ccc(S(=O)(=O)O)cc1.[Zn+2]` , system: UACC-62 melanoma. Its TGI is > 100 µM

Sample `Cc1cc(S(=O)(=O)/N=C/N(C)C)c(SC(=O)c2ccc(Cl)cc2)cc1Cl` , system: UACC-62 melanoma. Its TGI is > 100 µM

Sample `CC(=O)c1ccccc1NCC(=O)Nn1cnc2ccc(S(=O)(=O)Nc3ccccc3C(C)=O)cc2c1=O` , system: UACC-62 melanoma. Its TGI is > 100 µM

Sample `CC(=O)OCc1cncn1S(=O)(=O)c1ccc(C)cc1` , system: UACC-62 melanoma. Its TGI is > 100 µM

Sample `Brc1ccc2[nH]cc(-c3nc(-c4c[nH]c5ncccc45)cs3)c2c1` , system: UACC-62 melanoma. Its TGI is 16.6 µM

----------
System: SK-MEL-5 melanoma
Assay method text: NCI tumour cell line growth inhibition, 48 h
Property measured: GI50

// GI50 value for N#Cc1c(Br)n(C2OC(CO)C(O)C2O)c2ncnc(N)c12 (stereo not drawn) : 2680 nM

// GI50 value for CCC(c1ccc(OC)cc1)C(CC)c1ccc(O)c(CN2CCN(C)CC2)c1 (stereo not drawn) : 1690 nM

// GI50 value for `Oc1ccc(O)c(-c2cc(-c3ccc(Cl)cc3)nn2-c2ccccc2)c1` : 10100 nM

// GI50 value for `Nc1ccccc1.[C-]#[O+].[C-]#[O+].[C-]#[O+].[C-]#[O+].[C-]#[O+].[Cr]` : 1530 nM

// GI50 value for `Cc1cc(S(=O)(=O)/N=C/N(C)C)c(SC(=O)c2ccc(Cl)cc2)cc1Cl` : 10800 nM

// GI50 value for COc1cc2c(cc1OC)C(Sc1ccc(SC)cc1)c1c(nc(N)c(C#N)c1N)O2 (stereo not drawn) : 1690 nM

// GI50 value for `Brc1ccc2[nH]cc(-c3nc(-c4c[nH]c5ncccc45)cs3)c2c1` : 2970 nM

// GI50 value for COc1cccc(-c2ccc3c(c2)C2CCN(Cc4ccccc4)C3C2)c1 (stereo not drawn) : 3510 nM

----------
Tested on: MDA-N
Assay method text: NCI tumour cell line growth inhibition, 48 h
For each of the molecules below, state its TGI.

// TGI value for `CCOC(=O)c1sc2nc(SC)nc3c2c1NCN3c1ccc(F)c(F)c1` : > 45.8 µM

// TGI value for `Cc1ccc(-n2cc(-c3ccc(Cl)cc3)c3c(N/N=C4\SCC(=O)N4C)ncnc32)cc1` : 63.4 µM

// TGI value for Cc1cn(C2CC(N)C(C(=O)NCC(=O)O)O2)c(=O)[nH]c1=O (stereo unspecified) : > 100 µM

// TGI value for CC1=NN(C(=O)CC(=O)Nc2ccccc2Cl)C(=O)C1N=Nc1ccc(S(=O)(=O)c2ccc(N=NC3C(=O)N(C(=O)CC(=O)Nc4ccccc4Cl)N=C3C)cc2)cc1 (stereo unspecified) : > 100 µM

// TGI value for `C[n+]1c(-c2ccc(/C=N/Nc3ccnc(N/N=C/c4ccc(-c5cn6ccsc6[n+]5C)cc4)n3)cc2)cn2ccsc21` : 38.6 µM

// TGI value for `COC(=O)CCc1ccc2c(c1)C(=O)CC2` : > 100 µM

// TGI value for CCCC(O)c1cn(C(NC(=O)c2ccccc2)P(=O)(OCC)OCC)nn1 (stereo unspecified) : > 100 µM

// TGI value for Cc1cn(C2C=CC(CO)O2)c(=O)[nH]c1=O (stereo unspecified) : > 1000 µM

// TGI value for `C(=Nc1ccc(-c2nc3ccccc3[nH]2)cc1)c1ccc[nH]1` : > 100 µM

// TGI value for CC1(C)C(CCO)CC1n1cc(I)c(=O)[nH]c1=O (stereo unspecified) : > 100 µM

// TGI value for `CC(=O)OC(Cc1ccc2ccccc2n1)(C(F)(F)F)C(F)(F)F` : 3.54 µM

// TGI value for `COc1cccc(CSCC(=O)O)c1` : > 100 µM

// TGI value for O=C(CCCCCC(=O)N1CC(CCl)c2ccc([N+](=O)[O-])cc21)N1CC(CCl)c2ccc([N+](=O)[O-])cc21 (stereo unspecified) : > 100 µM

// TGI value for CN(CCO)CCCC1COc2ccccc2O1 (stereo unspecified) : > 100 µM

// TGI value for `CSc1c(C#N)c(N)nc2c(N=Nc3ccc(Br)cc3)c(N)nn12` : 18.8 µM

// TGI value for CCCCCCNC(=O)CCC(NC(=O)c1ccc(N(C)Cc2cnc3nc(N)nc(N)c3n2)cc1)C(=O)NCCCCCC (stereo unspecified) : > 100 µM

// TGI value for `O=c1oc2ccc([N+](=O)[O-])cc2c(Nc2ccc3c(c2)Sc2ccccc2O3)c1[N+](=O)[O-]` : 88.8 µM

// TGI value for `COc1cc(OC)c2nccc(NCCCN(C)C)c2c1[N+](=O)[O-]` : > 100 µM

// TGI value for `COc1ccc(/C=C/C(=O)c2cc(C(C)(C)C)c(O)c(C(C)(C)C)c2)cc1OC` : > 33.3 µM

// TGI value for `CC(=O)OCc1cncn1S(=O)(=O)c1ccc(C)cc1` : 45.6 µM

// TGI value for COC(OC)C1OCC(n2cc(F)c(=O)[nH]c2=O)C1O (stereo unspecified) : > 100 µM
